Tested on: IGROV1 ovarian
protocol: NCI-60 one-dose screen, 48 h (100 = growth as untreated, 0 = no growth, -100 = all killed)
experimental-context: 10 µM unless noted
About 83,000 compounds went through this panel and 20% of them were active in at least one assay; those are over-represented in the sample as a whole.
# binarize growth: threshold 10% inclusive, high side t, low side f

Observe how each entry below is paired with its result.
[
  {
    "compound": "CCCCCSC1C2C(=O)C(Br)=CC13CCNc1c(O)c4c5c(c13)=[N+]2CCC=5C=N4 (stereo not drawn)",
    "group": "f"
  },
  {
    "compound": "[Cl][Hg][c]1cc[c]([Hg][Cl])o1",
    "group": "t"
  },
  {
    "compound": "CCOC(=O)[C@@H](C)C[C@H](Cc1ccccc1)NC(=O)c1csc([C@@H](C[C@H](C(C)C)N(C)C(=O)CNC(=O)[C@H]2CCCCN2C)OC(C)=O)n1",
    "group": "t"
  },
  {
    "compound": "CC(=O)OC1CCC2C3CCC4=C/C(=N/OC(=O)c5ccc(N(CCCl)CCCl)cc5)CCC4(C)C3CC(C)C12 (stereo not drawn)",
    "group": "f"
  },
  {
    "compound": "CCC1CC(O)c2c(O)c3c(c(O)c2C1O)C(=O)c1cccc(O)c1C3=O (stereo not drawn) (tested in a mixture with another compound)",
    "group": "f"
  },
  {
    "compound": "O=C1C2CCC1C(N1CCCC1)CC2 (stereo not drawn)",
    "group": "t"
  },
  {
    "compound": "COC(=O)[C@@H](C)C[C@H](Cc1ccccc1)NC(=O)c1csc([C@@H](C[C@H](C(C)C)N(C)C(=O)[C@@H](NC(=O)C23CC(NC(C)=O)(C2)C3)C2CC2)OC(C)=O)n1",
    "group": "t"
  },
  {
    "compound": "CCOC(=O)N[C@H]1CCc2c(Br)c(OC)c(OC)c(OC)c2-c2ccc(SC)c(=O)cc21",
    "group": "t"
  },
  {
    "compound": "O=C(CC1(O)C(=O)N(Cc2ccccc2)c2ccc(F)cc21)c1ccc(C(=O)NCC2CCC3(CC2)OOC2(CCCCC2)OO3)cc1 (stereo not drawn)",
    "group": "f"
  },
  {
    "compound": "Cc1cc(C)c(CBr)c(C)c1",
    "group": "t"
  }
]

Decide: is the reported value of growth for C[C@@H]1C[C@@]2(C)[C@@H](CC[C@@H]3[C@@H]2CC[C@]2(C)C(=O)CC[C@@H]32)CC1=O equal to or greater than 10%?
t

Decide: is the reported value of growth for O=C1C(Cl)=C(N2CCOCC2)C(=O)c2ccccc21 equal to or greater than 10%?
f

Decide: is the reported value of growth for CC(=O)OC[C@]1(C)C=C2C(=O)[C@](C)(O)C3(CC3)C(C)=C2[C@H]1O equal to or greater than 10%?
f

====

Test system: OVCAR-8 ovarian
protocol: NCI-60 one-dose screen, 48 h
experimental-context: 10 µM unless noted
Description: Growth inhibition of the OVCAR-8 human tumor cell line is measured as a screen for anti-cancer activity. Cells are grown in 96 well plates and exposed to the test compound for 48 hours. Compounds are tested at a single concentration, which is 10^-5 M for most compounds. The reported endpoint is percent growth (GI% or GIPRCNT), where numbers from 0 - 100% represent growth inhibition, and numbers from -100% - 0 represent cell death. For example, a value of 40 represents 60% growth inhibition. […]
The panel holds about 83,000 compounds, 20% with a hit somewhere; the sample as a whole holds those more often. Active and inactive are the calls of the source. Rule for the calls: active = growth percent below 10; inactive = the rest.
Permitted responses: active, inactive

Observe how each entry below is paired with its result.
[
  {
    "molecule": "O=C(O)C(O)C(O)C1[O][Sb]([c]2ccc([N+](=O)[O-])cc2)[O]C1CO (stereo not drawn)",
    "group": "inactive"
  },
  {
    "molecule": "COC(=O)[C@@]1(O)C[C@H]2O[C@]1(C)n1c3ccccc3c3c4c(c5c6ccccc6n2c5c31)C(=O)NC4",
    "group": "active"
  },
  {
    "molecule": "COC(=O)[C@H](C[C@H](Cc1ccccc1)NC(=O)c1csc([C@@H](C[C@H](C(C)C)N(C)C(=O)[C@@H](NC(=O)[C@H]2CCCCN2C)C(C)C)OC(C)=O)n1)NC(=O)OCc1ccccc1",
    "group": "inactive"
  },
  {
    "molecule": "O=C(CN1CCN(C(=O)c2ccco2)CC1)Nc1ccc(Cl)cc1C(=O)c1ccccc1Cl",
    "group": "inactive"
  },
  {
    "molecule": "C[C@]12CC[C@H]3[C@@H](CC4SC(N)=NC45C/C(=N/NC(N)=O)CC[C@]35C)[C@@H]1CCC2=O (stereo partly drawn)",
    "group": "active"
  }
]

Look up the recorded call for C[C@]12C[C@@H](CO)[C@H](O)C[C@@H]1CC[C@@H]1[C@@H]2CC[C@]2(C)[C@@H](O)CC[C@@H]12 in this test.
inactive

Look up the recorded call for Brc1ccc2c(c1)c(-c1nc(-c3c[nH]c4ncccc34)cs1)cn2CCN1CCCCC1 in this test.
inactive

Look up the recorded call for C=CCn1cc(C=C2C(=O)N(C)C(=O)N(C)C2=O)c2ccccc21 in this test.
inactive

====

Tested on: A549/ATCC NSCLC
protocol: NCI-60 one-dose screen, 48 h
experimental-context: 10 µM unless noted
About 83,000 compounds went through this panel and 20% of them were active in at least one assay; those are over-represented in the sample as a whole. Active and inactive are the calls of the source. The calls were made as follows: active = growth percent below 10; inactive = the rest.
Permitted responses: 1 (yes) = active, 0 (no) = inactive

Observe how each entry below is paired with its result.
[
  {
    "molecule": "CC[C@H](C)[C@H](NC(=O)c1cccn1C)C(=O)N(C)[C@H](C[C@@H](OC(C)=O)c1nc(C(=O)N[C@@H](Cc2ccccc2)C[C@H](C)C(=O)OC)cs1)C(C)C",
    "group": "0 (no)"
  },
  {
    "molecule": "COc1ccc(/C=C\\c2cc(OC)c(OC)c(OC)c2)c(NS(=O)(=O)c2ccc(F)cc2)c1O",
    "group": "0 (no)"
  },
  {
    "molecule": "c1cc2c(c3c1CCNC3)OCO2",
    "group": "0 (no)"
  },
  {
    "molecule": "C=C1C(=O)O[C@H]2[C@H]1CC/C(COC(=O)C(=O)c1cn(Cc3ccccc3)c3ccccc13)=C\\CC[C@@]1(C)O[C@@H]21",
    "group": "1 (yes)"
  }
]

Look up the recorded call for CC(=O)[O][Hg][O]C(C)=O in this test.
0 (no)

Look up the recorded call for COC(=O)[C@H](Cc1ccccc1)NNC(=O)c1csc([C@@H](C[C@H](C(C)C)N(C)C(=O)[C@@H](NC(=O)[C@H]2CCCCN2C)C2CC2)OC(C)=O)n1 in this test.
0 (no)

Look up the recorded call for CCCC(C)C1(CC)C(=O)NC(=O)N(C)C1=O (stereo not drawn) in this test.
0 (no)

Look up the recorded call for COc1ccc(S(=O)(=O)Nc2c(/C=C\c3cc(OC)c(OC)c(OC)c3)ccc(OC)c2O)cc1OC in this test.
0 (no)

====

Test system: SK-MEL-28 melanoma
protocol: NCI-60 one-dose screen, 48 h (100 = growth as untreated, 0 = no growth, -100 = all killed)
experimental-context: 10 µM unless noted
This is part of a sample that, as a whole, favours compounds with a hit. Of some 83,000 tested, about 20% had one in any assay. The source made the active and inactive calls. How the source made its calls: active means growth percent below 10; inactive means the rest.
Measured growth, listed per entry.

Consider the following illustrative entries.
[
  {
    "molecule": "O=C(CC1(O)C(=O)N(Cc2ccccc2)c2ccc(F)cc21)c1ccc(C(=O)NCC2CCC3(CC2)OOC2(CCCCC2)OO3)cc1 (centres undefined)",
    "target": "SK-MEL-28 melanoma",
    "growth": "51.5% (inactive)"
  },
  {
    "molecule": "Clc1cccc(NCOOC2(OOCNc3cccc(Cl)c3)CCCCCC2)c1",
    "target": "SK-MEL-28 melanoma",
    "growth": "107% (inactive)"
  },
  {
    "molecule": "c1cnc2[nH]cc(-c3csc(-c4cn(CCCCN5CCCCC5)c5ccccc45)n3)c2c1",
    "target": "SK-MEL-28 melanoma",
    "growth": "83% (inactive)"
  },
  {
    "molecule": "CCOc1ccccc1C(=O)OCC(Cl)(Cl)Cl",
    "target": "SK-MEL-28 melanoma",
    "growth": "118% (inactive)"
  },
  {
    "molecule": "CC[CH2][Sn]([Cl])([Cl])[CH2]CC",
    "target": "SK-MEL-28 melanoma",
    "growth": "69.2% (inactive)"
  },
  {
    "molecule": "COC(=O)[C@@H](C)C[C@H](Cc1ccccc1)NC(=O)c1csc([C@@H](C[C@H](C(C)C)N(C)C(=O)[C@H](C)NC(=O)[C@H]2CCCCN2C)OC(C)=O)n1",
    "target": "SK-MEL-28 melanoma",
    "growth": "58.1% (inactive)"
  },
  {
    "molecule": "CCOC(=O)C(Cc1ccc(N(CCCl)CCCl)cc1)NC(=O)C(CC(C)C)NC(C)=O (centres undefined)",
    "target": "SK-MEL-28 melanoma",
    "growth": "6.21% (active)"
  },
  {
    "molecule": "CCN(CC)c1ccc2c(c1)OC(N)=C(C#N)C2c1cc(OC)c2c(c1)OCO2 (centres undefined)",
    "target": "SK-MEL-28 melanoma",
    "growth": "72.2% (inactive)"
  }
]

# input molecule: COc1cc(/C=C/[N+](=O)[O-])c([N+](=O)[O-])cc1OC ; wanted: its growth
38.4% (inactive)

# input molecule: CC1=C(CNO)C2=C(C)C3(CC3)[C@@](C)(O)C(=O)C2=C1 ; wanted: its growth
50.2% (inactive)

# input molecule: O=C1CCC2(O)[C@@H]3Cc4ccc(O)c5c4[C@]2(CCN3Cc2ccoc2)C1O5 (some centres undefined) ; wanted: its growth
115% (inactive)

# input molecule: [Cl][Hg][n]1c(-c2ccco2)nc2ccccc21 ; wanted: its growth
108% (inactive)
